# assayed target: nucleotide exchange on hKRASG12C mediated by hSOS1 (Homo sapiens)
# Sequence (Q07889 564-1049): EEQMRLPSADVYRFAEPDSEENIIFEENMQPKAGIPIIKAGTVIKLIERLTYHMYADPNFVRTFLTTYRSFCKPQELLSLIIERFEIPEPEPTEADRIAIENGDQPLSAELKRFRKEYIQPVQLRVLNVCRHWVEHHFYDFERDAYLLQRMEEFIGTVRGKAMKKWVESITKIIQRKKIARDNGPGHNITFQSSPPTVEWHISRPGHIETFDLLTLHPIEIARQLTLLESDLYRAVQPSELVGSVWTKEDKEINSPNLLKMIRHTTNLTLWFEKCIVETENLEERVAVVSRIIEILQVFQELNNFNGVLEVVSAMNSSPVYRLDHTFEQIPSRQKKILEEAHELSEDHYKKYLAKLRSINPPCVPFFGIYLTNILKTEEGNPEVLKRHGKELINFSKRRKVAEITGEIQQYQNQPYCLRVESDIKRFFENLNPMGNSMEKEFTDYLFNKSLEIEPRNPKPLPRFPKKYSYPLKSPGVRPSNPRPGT
Recorded IC50 values for a group of compounds are listed next.

Form field: reported IC50 of CC[C@]1(C)C(=O)N(C)c2cc3nc(C)nc(N[C@H](C)c4cccc(C(F)(F)C(C)(C)O)c4F)c3cc21 (single isomer, unassigned) [Compound 93a]
31 to 130 nM

Form field: reported IC50 of Cc1nc(NC(C)c2cccc(C(F)(F)C(C)(C)O)c2)c2cc3c(cc2n1)C(C)(C)C(=O)N3C (single isomer, unassigned) [Compound 73]
1 to 30 nM

Form field: reported IC50 of COCC1(C)C(=O)N(C)c2cc3c(N[C@H](C)c4cccc(C(F)(F)C(C)(C)O)c4F)nc(C)nc3cc21 (single isomer, unassigned) [Compound 98a]
1 to 30 nM

Form field: reported IC50 of Cc1nc(N[C@H](C)c2cccc(C(F)(F)C(C)(C)O)c2F)c2cc3c(cc2n1)[C@]1(CCOC1)C(=O)N3C (single isomer, unassigned) [Compound 128a]
1 to 30 nM

Form field: reported IC50 of Cc1nc(N[C@H](C)c2cccc(C(F)(F)C(C)(C)O)c2F)c2cc3c(cc2n1)C(C)C(=O)N3C (mixture of isomers) [Compound 99]
1 to 30 nM

Form field: reported IC50 of COCC1(C)C(=O)N(C)c2cc3nc(C)nc(N[C@H](C)c4cccc(C(F)(F)C(C)(C)O)c4F)c3cc21 (single isomer, unassigned) [Compound 94a]
1 to 30 nM

* * *

pIC50: −log10 of the molar value.
pIC50 tested on nucleotide exchange on hKRASG12C mediated by hSOS1 (Homo sapiens, UniProt Q07889): recorded values

{"compound": "CNCC(C)(O)C(F)(F)c1cccc([C@@H](C)Nc2nc(C)nc3cc4c(cc23)N(C)C(=O)C4(C)C)c1F (single isomer, unassigned) [Compound 130a]", "pIC50": "7.52 to 9.00"}

Tell me reported pIC50 for CCC1(OC)C(=O)N(C)c2cc3c(N[C@H](C)c4cc(N)cc(C(F)(F)F)c4)nc(C)nc3cc21 (stereo partly drawn) [Compound 139] , tested with nucleotide exchange on hKRASG12C mediated by hSOS1 (Homo sapiens, UniProt Q07889).
6.89 to 7.51

Tell me reported pIC50 for Cc1nc(N[C@H](C)c2cccc(C(F)(F)C(C)(C)O)c2F)c2cc3c(cc2n1)OC(C)C(=O)N3C (single isomer, unassigned) [Compound 31b] , tested with nucleotide exchange on hKRASG12C mediated by hSOS1 (Homo sapiens, UniProt Q07889).
7.52 to 9.00

Tell me reported pIC50 for CCC1(CC)C(=O)N(C)c2cc3nc(C)nc(N[C@H](C)c4cccc(C(F)(F)C(C)(C)O)c4F)c3cc21 [Compound 91] , tested with nucleotide exchange on hKRASG12C mediated by hSOS1 (Homo sapiens, UniProt Q07889).
6.89 to 7.51

Tell me reported pIC50 for Cc1nc(N[C@H](C)c2cc(N)cc(C(F)(F)F)c2)c2cc3c(cc2n1)C(C)(C)C(=O)N3C [Compound 70] , tested with nucleotide exchange on hKRASG12C mediated by hSOS1 (Homo sapiens, UniProt Q07889).
6.89 to 7.51

Tell me reported pIC50 for Cc1nc(N[C@H](C)c2cccc(C(F)(F)C(C)(C)O)c2F)c2cc3c(cc2n1)c(=O)n(C)c(=O)n3C [Compound 29] , tested with nucleotide exchange on hKRASG12C mediated by hSOS1 (Homo sapiens, UniProt Q07889).
7.52 to 9.00

* * *

# assayed target: nucleotide exchange on hKRASG12C mediated by hSOS1 (Homo sapiens, UniProt Q07889)
# Sequence (Q07889 564-1049): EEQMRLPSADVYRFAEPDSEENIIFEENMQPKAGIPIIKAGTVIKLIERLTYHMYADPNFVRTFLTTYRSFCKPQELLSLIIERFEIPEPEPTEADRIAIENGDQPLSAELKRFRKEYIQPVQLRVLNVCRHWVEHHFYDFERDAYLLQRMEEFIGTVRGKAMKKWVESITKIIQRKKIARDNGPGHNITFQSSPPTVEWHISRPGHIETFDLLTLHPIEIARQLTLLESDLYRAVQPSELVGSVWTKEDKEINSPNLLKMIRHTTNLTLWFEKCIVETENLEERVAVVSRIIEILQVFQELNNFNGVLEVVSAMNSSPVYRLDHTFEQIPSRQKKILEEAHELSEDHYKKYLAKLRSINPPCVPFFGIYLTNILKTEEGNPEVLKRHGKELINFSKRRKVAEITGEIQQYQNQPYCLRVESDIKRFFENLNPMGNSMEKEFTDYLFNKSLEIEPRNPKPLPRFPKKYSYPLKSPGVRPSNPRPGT
pIC50: −log10 of the molar value.
metric: pIC50

Take a look at these entries with their results.
{"molecule": "Cc1nc(N[C@H](C)c2cccc(C(F)(F)C(C)(C)O)c2F)c2cc3c(cc2n1)OCC(C)(C)N3C [Compound 37]", "pIC50": "7.52 to 9.00"}
{"molecule": "CO[C@]1(C)C(=O)N(C)c2cc3c(N[C@H](C)c4cccc(C(F)(F)C(C)(C)O)c4F)nc(C)nc3cc21 (single isomer, unassigned) [Compound 101a]", "pIC50": "6.89 to 7.51"}
{"molecule": "Cc1nc(N[C@H](C)c2cccc(C(F)(F)CO)c2F)c2cc3c(cc2n1)OC(C)(C)CN3C [Compound 35]", "pIC50": "7.52 to 9.00"}
{"molecule": "C[C@@H](Nc1nc(C2CC2)nc2cc3c(cc12)C(C)(C)C(=O)N3C)c1cccc(C(F)(F)C(C)(C)O)c1F [Compound 110]", "pIC50": "6.89 to 7.51"}

Tell me reported pIC50 for CCC1(C)C(=O)N(C)c2cc3nc(C)nc(N[C@H](C)c4cccc(C(F)(F)C(C)(C)O)c4F)c3cc21 (single isomer, unassigned) [Compound 93b] , tested with nucleotide exchange on hKRASG12C mediated by hSOS1 (Homo sapiens, UniProt Q07889).
6.89 to 7.51

Tell me reported pIC50 for CNCC(C)(O)C(F)(F)c1cccc([C@@H](C)Nc2nc(C)nc3cc4c(cc23)N(C)C(=O)C(C)(C)O4)c1F (stereo partly drawn) [Compound 55] , tested with nucleotide exchange on hKRASG12C mediated by hSOS1 (Homo sapiens, UniProt Q07889).
7.52 to 9.00

* * *

# assayed target: nucleotide exchange on hKRASG12C mediated by hSOS1 (Homo sapiens)
# Sequence (Q07889 564-1049): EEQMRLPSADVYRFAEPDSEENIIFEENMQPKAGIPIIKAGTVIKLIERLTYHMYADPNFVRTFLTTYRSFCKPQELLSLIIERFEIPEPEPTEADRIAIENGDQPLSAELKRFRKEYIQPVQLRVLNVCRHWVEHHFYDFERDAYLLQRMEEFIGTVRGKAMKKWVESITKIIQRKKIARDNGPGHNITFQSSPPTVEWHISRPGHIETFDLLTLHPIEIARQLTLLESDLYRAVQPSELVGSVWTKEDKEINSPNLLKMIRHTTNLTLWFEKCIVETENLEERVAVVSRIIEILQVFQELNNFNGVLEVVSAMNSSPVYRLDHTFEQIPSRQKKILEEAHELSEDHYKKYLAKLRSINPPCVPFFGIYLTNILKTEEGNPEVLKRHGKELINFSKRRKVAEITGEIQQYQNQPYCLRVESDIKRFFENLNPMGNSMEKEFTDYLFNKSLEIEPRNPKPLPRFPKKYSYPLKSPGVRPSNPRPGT
metric: IC50

Form field: reported IC50 of `Cc1nc(N[C@H](C)c2cccc(C(F)(F)CO)c2F)c2cc3c(cc2n1)OCC(=O)N3C`
1 to 30 nM

Form field: reported IC50 of COC1(C)C(=O)N(C)c2cc3c(N[C@H](C)c4cccc(C(F)(F)C(C)(C)O)c4F)nc(C)nc3cc21 (single isomer, unassigned) [Compound 101b]
1 to 30 nM

Form field: reported IC50 of `Cc1nc(N[C@H](C)c2cc(N)cc(C(F)(F)F)c2)c2cc3c(cc2n1)C1(CCOCC1)C(=O)N3C`
31 to 130 nM

Form field: reported IC50 of `Cc1nc(N[C@H](C)c2cccc(C(F)(F)C(C)(C)O)c2F)c2cc3c(cc2n1)n(C)c(=O)n3CC(F)F`
1 to 30 nM

Form field: reported IC50 of Cc1nc(N[C@H](C)c2cccc(C(F)(F)C(C)(O)CO)c2F)c2cc3c(cc2n1)C(C)(C)C(=O)N3C (single isomer, unassigned) [Compound 76a]
1 to 30 nM

Form field: reported IC50 of `Cc1nc(N[C@H](C)c2cccc(C(F)(F)C(C)(C)O)c2F)c2cc3c(cc2n1)OCCN3C`
31 to 130 nM

Form field: reported IC50 of COC[C@@]1(C)C(=O)N(C)c2cc3c(N[C@H](C)c4cccc(C(F)(F)C(C)(C)O)c4F)nc(C)nc3cc21 (racemic) [Compound 98b]
31 to 130 nM
